Test system: PIM1
Details: concentration: 1 μM, replicates: in singlicate; n = 1;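 also: KINOMEscan kinase panel screen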
Labelling field: enter class 1 if recorded %Inh is less than 8%. Enter class 0 if it equals or exceeds that cut-off.

Worked examples, 2 molecules total:
CC(C)(C)c1ccc2nccc(Nc3cccc(O)c3)c2c1
class 1
Cl.Cl.NCC(NC(=O)c1cc(-c2ccccc2)c(-c2ccnc3[nH]ccc23)s1)c1ccccc1 (stereo not shown)
class 1

Prompt: Would you kindly verify if %Inh of `Cc1ccc(C(=O)Nc2ccc(Nc3ccnc4cc(-c5nccs5)ccc34)cc2O)cc1.Cl` is strictly less than 8%?
Response: class 1

Prompt: Hello, I'm reviewing records and need to know if %Inh of `O=C(Nc1n[nH]c2cc(-c3ccoc3)ccc12)C1CC1` is below 8%. Could you check?
Response: class 1

Prompt: Strictly below 8%: is that where %Inh of `O=c1[nH]cc(-c2ccc(N3CCOCC3)cc2)c2sc(-c3cn[nH]c3)cc12` sits?
Response: class 0

Prompt: State whether 8% exceeds %Inh recorded for `Nc1ncc(-c2ccc3nccc(-c4ccncc4)c3c2)cc1S(=O)(=O)N1CCOCC1` .
Response: class 1

Prompt: Please state whether %Inh is below 8% for `Cn1cc(-c2ccc3c(c2)CCN3C(=O)Cc2cccc(F)c2)c2c(N)ncnc21`
Response: class 1

Prompt: Confirm or reject: %Inh of `CN(c1ccc(NC(=O)Nc2cc(C(F)(F)F)ccc2F)cc1)c1ccnc(Nc2ccc(S(N)(=O)=O)cc2)n1` lies strictly below 8%
Response: class 1

Prompt: Identify whether the molecule `O=C(Nc1cccc(-c2nn3ccccc3c2-c2ccnc(Nc3cccc(C(F)(F)F)c3)n2)c1)c1c(F)cccc1F` records %Inh below 8%.
Response: class 1

Prompt: Please check: %Inh for `C[C@@H](Oc1cc(-n2cnc3cc(-c4ccnc(NCCS(C)(=O)=O)c4)ccc32)sc1C(N)=O)c1ccccc1Cl` , strictly under 8% or not?
Response: class 0

Prompt: Please indicate whether the reported %Inh of COc1cc(Nc2nccc(N3CCC(NC(=O)Nc4cccc(C(C)=O)c4)C3)n2)cc(OC)c1OC (stereo not shown) is strictly below 8%.
Response: class 1

###

System: SRPK2
Details: concentration: 1 μM, replicates: in singlicate; n = 1
Class Yes: %Inh at least 5%. Class No: %Inh below 5%.

Example entries and their recorded answers appear below.
CN(C)Cc1ccc(-c2ccc3c(Nc4ccc(Oc5ccccn5)cc4)ccnc3c2)o1
No
O=C(Nc1cccc(Oc2ccc3nc(NC(=O)C4CC4)cn3n2)c1)c1ccccc1C(F)(F)F
Yes
COc1cccc(NC(=O)NC2CCN(c3ccnc(Nc4cc(OC)c(OC)c(OC)c4)n3)C2)c1 (stereo not shown)
No

Prompt: Does the molecule NCCCC(NC(=O)c1cc(Br)c(-c2ccnc3[nH]ccc23)s1)c1ccccc1.O=C(O)C(F)(F)F.O=C(O)C(F)(F)F (stereo not shown) have recorded %Inh that is 5% or more?
Response: Yes

Prompt: For this molecule, is measured %Inh 5% or higher? `Nc1n[nH]c2cnc(-c3ccccc3)cc12`
Response: No

Prompt: Could you tell me if the measured %Inh of O=C(NC1CCN(c2ccnc(Nc3ccc(F)cc3)n2)C1)c1cc2ccccc2s1 (stereo not shown) reaches 5% or more?
Response: Yes

Prompt: Would you say `Fc1ccc(-c2ncn(C3CCNCC3)c2-c2ccnc(Oc3ccc(-c4ccccc4)cc3)n2)cc1` shows %Inh at minimum 5%?
Response: No

Prompt: Evaluate `Cc1occc1-c1ncc(OC[C@@H](N)Cc2c[nH]c3ccccc23)cc1-c1ccc2[nH]nc(C)c2c1.O=C(O)C(F)(F)F` : %Inh at minimum 5%?
Response: No

Prompt: Would you say `COc1cccc(-c2ccc3c(NC(=O)C4CC4)n[nH]c3n2)c1` shows %Inh at minimum 5%?
Response: Yes

Prompt: Answer whether %Inh of `CC(=O)N1CCN(c2ccc(Nc3nccc(-c4sc(C(C)C)nc4-c4cccc(NS(=O)(=O)c5cccc(Cl)c5)c4)n3)cn2)CC1` is greater than or equal to 5%.
Response: No

Prompt: Given `COC(=O)Nc1nc2ccc(Oc3ccc(NC(=O)Nc4cc(C(F)(F)F)ccc4F)cc3)cc2n1C.Cl` , state whether its %Inh is at least 5%.
Response: Yes

Prompt: I'd appreciate it if you could say whether `C[C@@H]1CC[C@@H](C(=O)Nc2ccccc2)CN1c1cc(-c2ccc3c(N)n[nH]c3c2)nc(N)n1` has %Inh at least equal to 5%.
Response: Yes

Prompt: Quick check, %Inh >= 5%? `Nc1ncc(-c2cccnc2)c2scc(-c3ccc4c(c3)CCN4C(=O)Cc3ccccc3)c12`
Response: No

Prompt: # bool: %Inh of `c1ccc(Oc2ccc(Nc3ccnc4cc(-c5ccc(CNCCN6CCOCC6)o5)ccc34)cc2)nc1` >= 5%
Response: Yes

###

System: PIK3CG
Conditions: concentration: 1 μM, replicates: in singlicate; n = 1
Measured property: %Inh (%)
Answers are plain numbers, in %.

CC(C)c1nc(-c2cccc(NS(=O)(=O)c3c(F)cccc3F)c2F)c(-c2ccnc(Nc3ccc(N4CCOCC4)nc3)n2)s1
0
Cn1cc(-c2ccc3c(c2)CCN3C(=O)Cc2cccc(F)c2)c2c(N)ncnc21
30
COCCOCCOc1cc2ncc3c4ccc(C#N)cc4[nH]c3c2cc1OC
0
CC(C)(C)c1ccc2nccc(Nc3cccc(O)c3)c2c1
33
CNC(=O)c1ccccc1Nc1nc(Nc2ccc(N3CCOCC3)cc2)ncc1Cl.Cl
31

Parameters: items (list). Returns: %Inh for each item.
1. CCS(=O)(=O)c1ccc(OC)c(Nc2nccc(-c3c(-c4cccc(NC(=O)c5c(F)cccc5F)c4)nn4ncccc34)n2)c1
2. Cc1ccc(S(=O)(=O)Nc2ccc(Nc3nccc(Nc4cccc5[nH]ncc45)n3)cc2)cc1
3. CCCCc1nn2ncccc2c1-c1ccnc(Nc2ccc(N3CCN(C)CC3)cc2)n1

Response:
[3, 5, 0]

###

System: TGFBR1
Details: concentration: 1 μM, replicates: in singlicate; n = 1
Please provide measured %Inh for the entries that follow.
Answers are plain numbers, in %.

Worked cases, %Inh given:
O=C(NC1CCN(c2ccnc(Nc3ccc(F)cc3)n2)C1)c1cc2ccccc2s1 (stereo not drawn)
39
Cn1cc(-c2ccc3c(c2)CCN3C(=O)Cc2cccc(F)c2)c2c(N)ncnc21
0
Cl.Cl.NCC(C(=O)Nc1cc(Br)c(-c2ccnc3[nH]ccc23)s1)c1ccccc1 (stereo not drawn)
0
Fc1ccc(-c2ncn(C3CCNCC3)c2-c2ccnc(Oc3ccc(-c4ccccc4)cc3)n2)cc1
59
Cl.Cl.NCC(NC(=O)c1cc(-c2ccccc2)c(-c2ccnc3[nH]ccc23)s1)c1ccccc1 (stereo not drawn)
0

# batch: return %Inh for each of the 4 molecules below
1. CC(C)c1nc(-c2cccc(NS(=O)(=O)c3c(F)cccc3F)c2F)c(-c2ccnc(Nc3ccc(N4CCOCC4)nc3)n2)s1
2. COc1cccc(-c2ccc3c(NC(=O)C4CC4)n[nH]c3n2)c1
3. COc1cc(Nc2nccc(-c3c(-c4cccc(NC(=O)c5c(F)cccc5F)c4)nn4ncccc34)n2)cc(OC)c1OC
4. Cc1ccc(C)c(NC(=O)NC2CCN(c3ccnc(Nc4ccc(F)cc4)n3)C2)c1 (stereo not drawn)

Response:
1. 86
2. 27
3. 1
4. 12

###

Test system: EPHA6
Conditions: concentration: 1 μM, replicates: in singlicate; n = 1
Label T when %Inh is strictly below 5%; otherwise label F.

Take a look at these entries with their results.
c1ccc(-c2n[nH]cc2Nc2ccnc3ccccc23)nc1
T
COc1cccc(C(=O)Nc2cccc(Oc3ccc4nc(NC(=O)C5CC5)cn4n3)c2)c1
F

Prompt: is_below(%Inh, 5%) for `Cl.c1ccc(-c2ccc3c(Nc4ccc5[nH]ncc5c4)ccnc3c2)nc1` ?
Response: F

Prompt: API: query returns whether the compound falls strictly under 5% in %Inh. Query: `COCCOCCOc1cc2ncc3c4ccc(C#N)cc4[nH]c3c2cc1OC`
Response: F

Prompt: Given `CNC(=O)c1ccccc1Nc1nc(Nc2ccc(N3CCOCC3)cc2)ncc1Cl.Cl` , is recorded %Inh strictly lower than 5%?
Response: F

Prompt: Bench note: check whether `CCn1c(-c2nonc2N)nc2c(C#CC(C)(C)O)ncc(OCCCCN)c21.O=C(O)C(F)(F)F.O=C(O)C(F)(F)F` shows %Inh below 5%
Response: F

Prompt: Is the reported %Inh for `CN(c1ccc(NC(=O)Nc2cc(C(F)(F)F)ccc2F)cc1)c1ccnc(Nc2ccc(S(N)(=O)=O)cc2)n1` strictly below 5%?
Response: F

Prompt: Lab note: %Inh threshold 5%. Does this compound come in strictly under it? `CN1CCN(CCCNc2nccc(-c3c(-c4ccc(F)cc4)nn4cc(C(F)(F)F)ccc34)n2)CC1`
Response: F

Prompt: Field: below-cutoff. Rule: recorded %Inh strictly less than 5%. Subject: `CCc1ccc(-c2ccc3c(c2)-c2c(cnn2C)S(=O)(=O)N3C)cc1`
Response: T

Prompt: Please check: %Inh for Cl.Cl.NCC(NCc1ccc(-c2ccnc3[nH]ccc23)s1)c1ccccc1 (stereo not drawn) , strictly under 5% or not?
Response: T

Prompt: Say whether its %Inh is strictly beneath 5%. Entry: `Cl.c1ccc(-c2ccc3c(Nc4ccc5[nH]ccc5c4)ccnc3c2)nc1`
Response: F

Prompt: # TODO verify %Inh < 5% strictly for this compound: `FC(F)(F)c1ccc(/C=C/c2cncnc2Nc2ccc3[nH]c(Cc4ccccc4)nc3c2)cc1`
Response: T

Prompt: A record lists `Nc1n[nH]c2cnc(-c3ccccc3)cc12` . Is its %Inh below 5%?
Response: F

Prompt: Does the reported %Inh of `Cc1cccc(NC(=O)Nc2ccc(Oc3ncnc4ccn(C)c34)cc2)c1` stay below 5%?
Response: F

Prompt: Just wondering, is %Inh of `c1ccc(Oc2ccc(Nc3ccnc4cc(-c5ccc(CNCCN6CCOCC6)o5)ccc34)cc2)nc1` below 5%?
Response: T

Prompt: API: query returns whether the compound falls strictly under 5% in %Inh. Query: `C[C@@H](Oc1cc(-n2cnc3cc(-c4ccnc(NCCS(C)(=O)=O)c4)ccc32)sc1C(N)=O)c1ccccc1Cl`
Response: F
